target-or-system: human androgen receptor (AR) (Homo sapiens, UniProt P10275)
Construct: expressed in transfected cells; host or cells: mouse myoblast C2C12 cells, transient co-transfection with Fugene
Sequence (P10275 1-920): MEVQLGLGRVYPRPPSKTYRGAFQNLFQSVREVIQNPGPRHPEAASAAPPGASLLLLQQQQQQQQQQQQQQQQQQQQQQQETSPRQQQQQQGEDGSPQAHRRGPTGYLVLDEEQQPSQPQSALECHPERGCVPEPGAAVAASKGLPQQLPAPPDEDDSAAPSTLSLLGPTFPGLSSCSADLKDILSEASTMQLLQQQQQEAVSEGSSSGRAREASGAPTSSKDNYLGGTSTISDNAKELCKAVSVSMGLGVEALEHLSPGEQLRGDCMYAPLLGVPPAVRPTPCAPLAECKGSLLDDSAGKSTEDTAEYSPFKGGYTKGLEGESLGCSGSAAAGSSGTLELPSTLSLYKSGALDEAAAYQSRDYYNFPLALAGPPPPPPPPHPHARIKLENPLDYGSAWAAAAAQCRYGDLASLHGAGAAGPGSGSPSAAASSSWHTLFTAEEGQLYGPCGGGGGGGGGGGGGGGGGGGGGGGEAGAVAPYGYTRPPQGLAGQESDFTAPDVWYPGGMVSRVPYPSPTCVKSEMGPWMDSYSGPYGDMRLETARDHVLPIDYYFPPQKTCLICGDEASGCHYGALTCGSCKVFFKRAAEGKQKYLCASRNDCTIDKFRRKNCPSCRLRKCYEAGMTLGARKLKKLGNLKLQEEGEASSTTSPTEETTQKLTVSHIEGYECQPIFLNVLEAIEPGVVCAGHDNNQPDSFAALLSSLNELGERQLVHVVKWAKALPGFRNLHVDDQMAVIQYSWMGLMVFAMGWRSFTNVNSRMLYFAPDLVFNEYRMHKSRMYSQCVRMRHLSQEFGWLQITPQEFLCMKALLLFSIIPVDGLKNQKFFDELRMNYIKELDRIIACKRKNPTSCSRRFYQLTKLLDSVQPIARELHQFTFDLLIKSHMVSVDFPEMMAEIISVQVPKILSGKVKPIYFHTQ
method-summary: C2C12 AR/ARE reporter assay
Type: cell-based
assay-setup: mouse myoblast C2C12 cells transfected with human AR; no unit printed for these values; read-out: EC50 in the C2C12 AR/ARE reporter assay
pEC50: −log10 of the molar value.
outcome-measure: pEC50

So what does the record say about pEC50 for CC(C)OC(=O)N[C@H]1Cc2c(n(C[C@@H]3N(C)CC[C@@]3(C)O)c3ccc(C#N)cc23)C1 (relative stereo) ?
~9.52

* * *

target-or-system: human AR (androgen receptor) (Homo sapiens)
Sequence (P10275 1-920): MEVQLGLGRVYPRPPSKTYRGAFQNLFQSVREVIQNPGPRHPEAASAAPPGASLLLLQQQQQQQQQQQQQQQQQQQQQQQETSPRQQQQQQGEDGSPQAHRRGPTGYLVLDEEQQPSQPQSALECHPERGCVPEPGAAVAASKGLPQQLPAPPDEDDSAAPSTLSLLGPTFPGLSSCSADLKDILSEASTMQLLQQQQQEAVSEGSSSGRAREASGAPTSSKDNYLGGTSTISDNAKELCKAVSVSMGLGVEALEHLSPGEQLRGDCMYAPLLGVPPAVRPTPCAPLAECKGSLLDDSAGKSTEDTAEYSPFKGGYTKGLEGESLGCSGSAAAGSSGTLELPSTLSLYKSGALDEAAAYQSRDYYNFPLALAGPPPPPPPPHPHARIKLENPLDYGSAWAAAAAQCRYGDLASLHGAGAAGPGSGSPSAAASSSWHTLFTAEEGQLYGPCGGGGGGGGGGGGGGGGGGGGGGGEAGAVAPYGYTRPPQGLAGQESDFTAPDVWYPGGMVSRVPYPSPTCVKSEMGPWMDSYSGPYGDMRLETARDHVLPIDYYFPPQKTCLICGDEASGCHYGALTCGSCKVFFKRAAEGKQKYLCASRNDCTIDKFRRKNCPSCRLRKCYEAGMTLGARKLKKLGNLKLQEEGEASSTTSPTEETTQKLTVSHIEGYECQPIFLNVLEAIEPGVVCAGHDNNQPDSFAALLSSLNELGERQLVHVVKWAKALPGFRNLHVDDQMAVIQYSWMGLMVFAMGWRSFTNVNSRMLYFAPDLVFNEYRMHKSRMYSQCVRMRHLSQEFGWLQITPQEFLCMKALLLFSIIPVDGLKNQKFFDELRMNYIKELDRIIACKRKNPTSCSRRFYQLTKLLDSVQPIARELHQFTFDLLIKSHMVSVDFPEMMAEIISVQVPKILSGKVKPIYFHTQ
method-summary: Steroid hormone nuclear receptor binding assay (AR binding)
pKi: −log10 of the molar value.
outcome-measure: pKi

Solved cases (2 shown):
> print(dat)
                                   molecule  endpoint.value
1  CC(C)OC(=O)N[C@H]1Cc2c(n(C[C@H]3NCC[C@@H]3O)c3ccc(C#N)cc23)C1 [Example 1]           ~7.29
2  CC(C)OC(=O)N[C@H]1Cc2c(n(Cc3ccccc3O)c3ccc(C#N)cc23)C1 [Example 9]           ~9.10

Field request: pKi | item: CC(C)OC(=O)N[C@H]1Cc2c(n(C[C@@H]3[C@@H](O)CCN3C)c3ccc(C#N)cc23)C1 [Example 2]
~7.96
